method_description: Biodistribution in rats
Format: in vivo, male Sprague-Dawley rats
measurement_setup: rat, iv, 30 min p.i., mean ± SD, n = 4
experimental_endpoint: muscle uptake (%ID/g)

Consider the worked cases shown below.
INSERT INTO assay_data (compound, number) VALUES
  ('Cn1cc(-c2ccncc2)c(-c2ccc(OCc3cc([18F])c4ccccc4n3)cc2)n1 [[^18F]18a]', 0.236),
  ('Cn1cc(-c2ccncc2)c(-c2ccc(OCc3cc(CCC[18F])c4ccccc4n3)cc2)n1 [[^18F]18c]', 0.178),
  ('Cn1cc(-c2ccncc2)c(-c2ccc(OCc3cc(C[18F])c4ccccc4n3)cc2)n1 [[^18F]18b]', 0.174);

[1] Cn1cc(-c2ccncc2)c(-c2ccc(OCc3cc(OCC[18F])c4ccccc4n3)cc2)n1 [[^18F]18d]
[2] Cn1cc(-c2ccncc2)c(-c2ccc(OCc3cc(COCC[18F])c4ccccc4n3)cc2)n1 [[^18F]18e]
I'd appreciate it if you could identify which of 1 and 2 has the greater muscle uptake. Record your answer as the label of the chosen record.
2
(2: 0.265 %ID/g, 1: 0.134 %ID/g)

###

assayed_target: PDE10A (Rattus norvegicus, UniProt Q9QYJ6)
Sequence (Q9QYJ6 whole entry): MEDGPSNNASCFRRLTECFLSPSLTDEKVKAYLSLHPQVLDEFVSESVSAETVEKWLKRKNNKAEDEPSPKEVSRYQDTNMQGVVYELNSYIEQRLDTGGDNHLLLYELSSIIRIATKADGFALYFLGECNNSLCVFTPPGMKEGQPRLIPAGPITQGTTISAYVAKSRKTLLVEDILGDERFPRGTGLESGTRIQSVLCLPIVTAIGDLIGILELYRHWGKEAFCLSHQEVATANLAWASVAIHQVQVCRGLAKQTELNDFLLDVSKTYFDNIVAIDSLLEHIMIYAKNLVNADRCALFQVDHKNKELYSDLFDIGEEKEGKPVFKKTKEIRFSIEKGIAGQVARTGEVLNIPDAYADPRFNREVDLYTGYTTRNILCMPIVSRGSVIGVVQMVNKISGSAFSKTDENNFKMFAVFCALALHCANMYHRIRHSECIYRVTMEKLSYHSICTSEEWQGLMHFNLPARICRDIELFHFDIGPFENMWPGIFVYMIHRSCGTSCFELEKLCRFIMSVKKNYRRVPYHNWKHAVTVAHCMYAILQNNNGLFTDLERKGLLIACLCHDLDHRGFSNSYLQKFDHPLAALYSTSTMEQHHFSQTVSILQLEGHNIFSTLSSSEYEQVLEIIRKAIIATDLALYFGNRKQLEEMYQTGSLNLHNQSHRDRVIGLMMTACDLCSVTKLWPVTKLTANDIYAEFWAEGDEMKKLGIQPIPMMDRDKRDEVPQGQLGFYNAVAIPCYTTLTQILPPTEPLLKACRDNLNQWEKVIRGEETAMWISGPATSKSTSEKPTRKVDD
measurement_setup: by 30 min p.i.
Measured ratio of activity in the striatum versus nontarget brain regions, listed per entry.

INSERT INTO assay_data (molecule, assayed_target, result) VALUES
  ('Cn1cc(-c2ccncc2)c(-c2ccc(OCc3cc([18F])c4ccccc4n3)cc2)n1 [[^18F]18a]', 'PDE10A (Rattus norvegicus, UniProt Q9QYJ6)', '> 2 fold');

Which value of ratio of activity in the striatum versus nontarget brain regions has been reported for Cn1cc(-c2ccncc2)c(-c2ccc(OCc3cc(CCC[18F])c4ccccc4n3)cc2)n1 [[^18F]18c] in the records?
> 2 fold

Which value of ratio of activity in the striatum versus nontarget brain regions has been reported for Cn1cc(-c2ccncc2)c(-c2ccc(OCc3cc(C[18F])c4ccccc4n3)cc2)n1 [[^18F]18b] in the records?
> 2 fold

Which value of ratio of activity in the striatum versus nontarget brain regions has been reported for Cn1cc(-c2ccncc2)c(-c2ccc(OCc3cc(OCC[18F])c4ccccc4n3)cc2)n1 [[^18F]18d] in the records?
> 2 fold

Which value of ratio of activity in the striatum versus nontarget brain regions has been reported for Cn1cc(-c2ccncc2)c(-c2ccc(OCc3nc4ccccc4cc3OCC[18F])cc2)n1 [[^18F]20a] in the records?
> 2 fold
